Tested on: human SMAD7 mRNA
Method notes: Antisense inhibition of human SMAD7 mRNA expression in Hep3B cells by 3-10-3 cEt gapmers, 10,000 nM, electroporation (Example 2)
Type: cell-based
Test settings: Hep3B cells, electroporation with 10,000 nM antisense oligonucleotide, approximately 24 hours, SMAD7 mRNA by RT-PCR (RTS5062), relative to untreated control cells
Strand notation (5' to 3'): a small letter for the sugar, then the base; units joined by * are phosphorothioate-linked, units joined directly phosphodiester-linked; [ ] holds rarer units or linkages, { } end groups; capitals alone tell only the bases. k = constrained ethyl (cEt); [5mC] = 5-methylcytosine; d = 2'-deoxy (DNA)
Task for the reader: assign each of the following substances its reported % Inhibition.
One number for each entry, in %.

Recorded % Inhibition, per entry:
{"Substance": "798888 (kA*kA*kA*dG*d[5mC]*dT*dG*dA*dT*d[5mC]*dT*dG*d[5mC]*kA*k[5mC]*kG; antisense) [compound 798888]", "System": "human SMAD7 mRNA", "% Inhibition / %": 40}
{"Substance": "799252 (antisense k[5mC]*kA*kA*dA*dG*dG*dT*dG*d[5mC]*dG*d[5mC]*dG*dG*k[5mC]*k[5mC]*kA) [compound 799252]", "System": "human SMAD7 mRNA", "% Inhibition / %": 41}
{"Substance": "830052 (kG*kA*kG*dT*dA*dA*d[5mC]*d[5mC]*dA*dG*d[5mC]*dT*dG*kT*k[5mC]*kT; antisense) [compound 830052]", "System": "human SMAD7 mRNA", "% Inhibition / %": 35}

Provide each entry's % Inhibition from the list below.
1. 799987 (k[5mC]*kA*kA*dA*d[5mC]*dA*dT*d[5mC]*dA*d[5mC]*d[5mC]*dA*d[5mC]*kG*k[5mC]*k[5mC]; antisense) [compound 799987]
2. 799964 (antisense k[5mC]*k[5mC]*k[5mC]*d[5mC]*dT*dT*dA*dG*d[5mC]*dG*d[5mC]*dA*dT*kT*k[5mC]*kT) [compound 799964]
3. 799413 (antisense kA*kT*kT*dA*d[5mC]*dT*dG*dA*dT*dG*d[5mC]*dT*dA*kA*kA*kT) [compound 799413]
4. 830183 (antisense k[5mC]*kG*kG*dT*dT*dG*d[5mC]*d[5mC]*dT*d[5mC]*dA*dT*d[5mC]*k[5mC]*kT*kG) [compound 830183]
5. 799356 (kG*kA*kA*dA*dA*dA*dT*dT*d[5mC]*dA*d[5mC]*d[5mC]*dA*kA*kA*k[5mC]; antisense) [compound 799356]
6. 830111 (k[5mC]*k[5mC]*k[5mC]*dA*dT*dT*d[5mC]*dA*dT*dT*dA*dA*dG*k[5mC]*k[5mC]*k[5mC]; antisense) [compound 830111]
7. 798741 (antisense k[5mC]*kT*kT*d[5mC]*dA*dG*dT*dT*dT*d[5mC]*dT*dT*dG*kA*kG*k[5mC]) [compound 798741]

1. 57
2. 55
3. 34
4. 47
5. 23
6. 38
7. 17

# map each substance to its % Inhibition
1. 799986 (kA*kA*kA*d[5mC]*dA*dT*d[5mC]*dA*d[5mC]*d[5mC]*dA*d[5mC]*dG*k[5mC]*k[5mC]*kT; antisense) [compound 799986]
2. 798769 (k[5mC]*k[5mC]*kT*dG*dA*dG*dA*dT*d[5mC]*d[5mC]*dG*dG*d[5mC]*k[5mC]*kA*k[5mC]; antisense) [compound 798769]
3. 790492 (kT*k[5mC]*k[5mC]*d[5mC]*dG*dT*dA*dA*dG*dA*dT*dT*d[5mC]*kA*k[5mC]*kA; antisense) [compound 790492]
4. 830200 (antisense kG*kA*kA*dG*dG*d[5mC]*dT*dA*d[5mC]*dA*d[5mC]*d[5mC]*dA*kA*kA*kG) [compound 830200]
5. 799510 (antisense kG*kA*kG*dA*dA*dA*d[5mC]*dA*dG*dT*d[5mC]*dT*d[5mC]*k[5mC]*kA*k[5mC]) [compound 799510]

[44, 58, 38, 33, 57]

---

Kindly state % inhibition of SMAD7 mRNA expression for each of the entries shown.
Tested on: human SMAD7 mRNA
Method notes: Antisense inhibition of human SMAD7 mRNA expression in Hep3B cells by 5-10-5 MOE gapmers, single concentration, electroporation, RT-PCR (Example 1, Study 1 and 2)
Assay type: cell-based
Test settings: electroporation, 15,000 nM antisense oligonucleotide (Study 2), 5-10-5 MOE gapmers targeting SEQ ID NO: 1 and 2
Strand notation (5' to 3'): a small letter for the sugar, then the base; units joined by * are phosphorothioate-linked, units joined directly phosphodiester-linked; [ ] holds rarer units or linkages, { } end groups; capitals alone tell only the bases. e = 2'-O-(2-methoxyethyl) (MOE); [5mC] = 5-methylcytosine; d = 2'-deoxy (DNA)
Quick note: unit goes after the number.

Study these solved cases before continuing.
{"Substance": "771364 (antisense eT*eA*eA*eT*eG*dG*dT*d[5mC]*dT*dG*d[5mC]*dT*d[5mC]*dA*dG*eG*e[5mC]*eT*eT*e[5mC]) [compound 771364]", "% inhibition of SMAD7 mRNA expression": "23%"}
{"Substance": "771473 (antisense eA*eG*e[5mC]*e[5mC]*eG*dA*dT*dT*dT*dT*dG*d[5mC]*dT*d[5mC]*d[5mC]*eG*e[5mC]*eA*e[5mC]*e[5mC]) [compound 771473]", "% inhibition of SMAD7 mRNA expression": "9%"}
{"Substance": "771745 (antisense eG*eT*eG*eA*eA*dG*dA*dA*dG*d[5mC]*dA*dA*dA*dG*dT*eA*eT*eA*e[5mC]*e[5mC]) [compound 771745]", "% inhibition of SMAD7 mRNA expression": "24%"}
{"Substance": "771520 (antisense eA*eT*eG*eA*eA*dA*dA*dG*d[5mC]*dA*dA*dG*d[5mC]*dA*d[5mC]*eT*e[5mC]*eA*eG*eG) [compound 771520]", "% inhibition of SMAD7 mRNA expression": "12%"}
{"Substance": "771737 (antisense eT*e[5mC]*eA*eA*eA*dT*dG*dA*dA*d[5mC]*d[5mC]*d[5mC]*dT*dG*dG*eT*eT*eA*eT*eA) [compound 771737]", "% inhibition of SMAD7 mRNA expression": "57%"}

Quick one: give me % inhibition of SMAD7 mRNA expression for each item below, same order please.
1. 771506 (antisense eG*e[5mC]*eT*e[5mC]*eA*dG*d[5mC]*dT*d[5mC]*dA*d[5mC]*dG*d[5mC]*dT*d[5mC]*eT*eG*eT*e[5mC]*e[5mC]) [compound 771506]
2. 771824 (antisense eT*eT*e[5mC]*eT*eA*d[5mC]*dT*dA*dG*dA*dA*dA*dA*dA*dA*eA*eT*eT*eA*eG) [compound 771824]
3. 771397 (antisense eG*eA*eG*e[5mC]*eG*dG*d[5mC]*dG*dG*d[5mC]*dG*dG*d[5mC]*d[5mC]*d[5mC]*eG*eA*eG*eG*eG) [compound 771397]
4. 771443 (eG*e[5mC]*e[5mC]*eT*e[5mC]*dT*dT*dG*dA*d[5mC]*dT*dT*d[5mC]*d[5mC]*dG*eA*eG*eG*eA*eA; antisense) [compound 771443]
5. 771792 (antisense eA*eG*e[5mC]*eA*e[5mC]*dA*d[5mC]*d[5mC]*d[5mC]*d[5mC]*dA*d[5mC]*d[5mC]*d[5mC]*d[5mC]*e[5mC]*eA*e[5mC]*e[5mC]*eT) [compound 771792]

["53%", "0%", "55%", "30%", "2%"]

---

Test system: human SMAD7 mRNA
Method notes: Antisense inhibition of human SMAD7 mRNA expression in Hep3B cells by 3-10-3 cEt gapmers, 10,000 nM, electroporation (Example 2)
Type: cell-based
Test settings: Hep3B cells, electroporation with 10,000 nM antisense oligonucleotide, approximately 24 hours, primer probe set RTS5062, relative to untreated control cells
Strand notation (5' to 3'): a small letter for the sugar, then the base; units joined by * are phosphorothioate-linked, units joined directly phosphodiester-linked; [ ] holds rarer units or linkages, { } end groups; capitals alone tell only the bases. k = constrained ethyl (cEt); [5mC] = 5-methylcytosine; d = 2'-deoxy (DNA)
Attribute measured: % inhibition of SMAD7 mRNA expression (%)
One number for each entry, in %.

These solved cases illustrate the format of a correct answer.
{"Substance": "799032 (kA*kG*kG*dT*dA*d[5mC]*dT*dG*d[5mC]*d[5mC]*dT*d[5mC]*dT*kG*k[5mC]*k[5mC]; antisense) [compound 799032]", "% inhibition of SMAD7 mRNA expression, %": 42}
{"Substance": "799214 (kT*kT*k[5mC]*dT*dT*dG*dT*dT*dT*dA*dT*dA*d[5mC]*kA*k[5mC]*kA; antisense) [compound 799214]", "% inhibition of SMAD7 mRNA expression, %": 46}
{"Substance": "799052 (antisense k[5mC]*kT*kG*dT*dG*dG*dA*d[5mC]*dA*dG*dG*d[5mC]*d[5mC]*k[5mC]*kG*kT) [compound 799052]", "% inhibition of SMAD7 mRNA expression, %": 40}
{"Substance": "799495 (antisense k[5mC]*kT*kA*dA*d[5mC]*dA*dG*dG*dA*dA*dT*dA*dT*kA*k[5mC]*kA) [compound 799495]", "% inhibition of SMAD7 mRNA expression, %": 25}
{"Substance": "790621 (kG*kT*kG*d[5mC]*dA*dT*d[5mC]*dT*dT*dT*dT*d[5mC]*dT*kT*kT*kA; antisense) [compound 790621]", "% inhibition of SMAD7 mRNA expression, %": 0}
{"Substance": "799171 (antisense kT*kG*k[5mC]*dT*d[5mC]*dA*dT*dT*dG*dA*dG*d[5mC]*dT*kA*kA*kG) [compound 799171]", "% inhibition of SMAD7 mRNA expression, %": 30}
{"Substance": "790613 (k[5mC]*kA*kT*dT*dT*dA*dA*dA*d[5mC]*d[5mC]*dT*dT*dT*kG*kT*kA; antisense) [compound 790613]", "% inhibition of SMAD7 mRNA expression, %": 0}
{"Substance": "799070 (antisense kA*kG*kG*dG*dA*dA*dT*dA*dA*dG*dA*d[5mC]*dA*kA*kG*kG) [compound 799070]", "% inhibition of SMAD7 mRNA expression, %": 67}
{"Substance": "799441 (antisense k[5mC]*kT*kA*dG*dA*dA*dA*dA*dG*dT*dT*dA*dA*kG*kA*kG) [compound 799441]", "% inhibition of SMAD7 mRNA expression, %": 22}

Please look at the following substance next.
GET /values?readout=% inhibition of SMAD7 mRNA expression&system=human SMAD7 mRNA&item= 798662 (kG*k[5mC]*kT*d[5mC]*d[5mC]*dG*dG*d[5mC]*dT*dG*d[5mC]*d[5mC]*d[5mC]*k[5mC]*kA*k[5mC]; antisense) [compound 798662] 62

Origin of measurements: patent US10517889B2
